# System: MYB mRNA
# EXPERIMENTAL PROTOCOL: Splicing RT-qPCR assay, MYB canonical (CJ) and alternative (AJ) junction mRNA
# Type: cell-based, human
# CONDITIONS: Homo sapiens; A673 or K562 cells, 24 hours compound treatment, RT-qPCR; read-out: MYB AJ (AC50, increase in alternative junction mRNA)
Overview of reported AC50 across a group of compounds:
READOUT TYPE: AC50

| COMPOUND | READOUT TYPE | EXPERIMENTAL RESULT |
| --- | --- | --- |
| Cc1cn2cc(NC(=O)c3ccc(N4CC5NC5C4)c4cn(C)nc34)cc(F)c2n1 (stereo not shown) [Compound 563] | AC50 | < 100 nM |
| Cc1cn2cc(NC(=O)c3ccc(N4CCC(N5C6COCC65)C4)c4cn(C)nc34)cc(F)c2n1 (stereo not shown) [Compound 629] | AC50 | 1000 to 10000 nM |
| Cc1cn2cc(NC(=O)c3ccc(N4C5CNCC54)c4cn(C)nc34)cc(F)c2n1 (stereo not shown) [Compound 564] | AC50 | < 100 nM |
| Cc1cn2cc(NC(=O)c3ccc(N4CCC(N5C6CNCC65)C4)c4cn(C)nc34)cc(F)c2n1 (stereo not shown) [Compound 622] | AC50 | > 10000 nM |
